- Test system: A549
- ASSAY DETAILS: Cytotoxicity against human A549 cells assessed as reduction in cell viability after 72 hrs by MTS assay
- Format: functional, cell-based
- TEST PARAMETERS: A549, 72 h
EC50: recorded values
READOUT LABEL: EC50

COMPOUND: CC(C)CCOC(=O)C[C@H](NP(=O)(OC[C@H]1O[C@@H](n2ccc(N)nc2=O)C(F)(F)[C@@H]1O)Oc1ccccc1)C(=O)OCCC(C)C (stereo partly drawn)
REPORTED VALUE: > 100 µM
//
COMPOUND: Nc1ccn([C@@H]2O[C@H](CO)[C@@H](O)C2(F)F)c(=O)n1
REPORTED VALUE: > 100 µM
//
COMPOUND: O=c1[nH]c(=O)n([C@H]2C[C@H](O)[C@@H](CO)O2)cc1F
REPORTED VALUE: 60.8 µM
//
COMPOUND: CCOC(=O)CC[C@H](NP(=O)(OC[C@H]1O[C@@H](n2ccc(N)nc2=O)C(F)(F)[C@@H]1O)Oc1ccccc1)C(=O)OCC (stereo partly drawn)
REPORTED VALUE: > 100 µM
//
COMPOUND: CC(C)CCOC(=O)[C@H](CC(=O)OCc1ccccc1)NP(=O)(OC[C@H]1O[C@@H](n2ccc(N)nc2=O)C(F)(F)[C@@H]1O)Oc1ccccc1 (stereo partly drawn)
REPORTED VALUE: > 100 µM
//
COMPOUND: O=c1[nH]c(=O)n([C@H]2C[C@H](O)[C@@H](CO)O2)cc1I
REPORTED VALUE: > 100 µM
//
COMPOUND: CC(C)CCOC(=O)CC[C@H](NP(=O)(OC[C@H]1O[C@@H](n2ccc(N)nc2=O)C(F)(F)[C@@H]1O)Oc1ccccc1)C(=O)OCCC(C)C (stereo partly drawn)
REPORTED VALUE: > 100 µM
//
COMPOUND: CC(C)CCOC(=O)C[C@H](NP(=O)(OC[C@H]1O[C@@H](n2cc(/C=C/Br)c(=O)[nH]c2=O)C[C@@H]1O)Oc1ccccc1)C(=O)OCCC(C)C (stereo partly drawn)
REPORTED VALUE: 9.9 µM
